Target: HLA.A2 with NY-ESO-1: 157-165 on IM9 cells
Assay: cell-based or functional assay
Measurement Type: Max Fold (RLU), NFAT-luciferase (fold)
A number alone suffices; assume fold.

Query: Requested read-out: Max Fold (RLU), NFAT-luciferase. Entry: NY-ESO CAR-T 24958N VH-VL (protein, part only; not given: scFv linker, hinge, signalling domains, not shown: large carriers) chain, part: QVQLQESGPGLVKPSQTLSLTCTVSGGSIISDGYYWSWIRQHPGKGLEWIGYVDYSGNTYYNPSLKSRIIMSVDTSKNQFSLKLTSVTAADTAVYFCVREGPLRDAFEIWGQGTMVTVSSDIQMTQSPSSLSASVGDRVTITCRTSQSISRYLNWYQQKPGKAPKLLIFAASSLQSGVPSRFSGSGSGADFTLTISSLQPEDFATYYCQQSYSTPPITFGQGTRLEIK
Response: 1
